Test system: OVCAR-8 ovarian
assay.notes: NCI tumour cell line growth inhibition, 48 h; in the data active = GI50 below about 0.43 µM; inactive = the rest
Possible outcomes: YES = active, NO = inactive

# molecule, assay.system, class.label
data = [
    ("Cc1ccc(NC(=O)c2ccoc2)cc1-c1ccc(C(=O)NCC2CC2)cc1", "OVCAR-8 ovarian", "NO"),
    ("COC1C(OC(=O)/C=C/C=C/C=C/C=C/C(=O)O)CCC2(CO2)C1C1(C)OC1CC=C(C)C (stereo not given)", "OVCAR-8 ovarian", "NO"),
    ("Cc1cc[c]([Sb]2[O]C(CO)C(C(O)C(O)C(=O)O)[O]2)cc1 (stereo not given)", "OVCAR-8 ovarian", "NO"),
    ("COc1ccc2c(c1)c(-c1ccc(-c3cn(C)c4ccc(OC)cc34)s1)cn2C", "OVCAR-8 ovarian", "NO"),
    ("C/C(=C1\\C(=O)Nc2ccccc21)c1cccc(/C(C)=C2/C(=O)Nc3ccccc32)n1", "OVCAR-8 ovarian", "NO"),
    ("CCCCCOC(=O)c1c(C)[nH]c(/C=C2\\N=C(c3ccc[nH]3)C=C2OC)c1C", "OVCAR-8 ovarian", "YES"),
    ("O=c1cc(-c2cccc(Cl)c2)[nH]c2cc3c(cc12)OCO3", "OVCAR-8 ovarian", "NO"),
    ("CCN(CC)CCN1C(=O)C2C3C(C)=CC(OC(C)=O)(CC3C)C2C1=O (stereo not given)", "OVCAR-8 ovarian", "NO"),
    ("N#Cc1nc2cc(Cl)c(Cl)cc2nc1-c1ccc(Cl)cc1", "OVCAR-8 ovarian", "NO"),
    ("Cc1ccc(/C=C/C(=O)c2ccc(F)cc2)s1", "OVCAR-8 ovarian", "NO"),
]
